Here, each record is paired with measured mass density data.
Settings: 318.15 K; 101.33 kPa; Liquid; Vibrating tube method
endpointLabel: mass density (kg/m3)

| compound | measurementUnits | recordedValue |
| --- | --- | --- |
| CCCCCCCCOS(=O)(=O)[O-].CCCCn1cc[n+](C)c1 [1-butyl-3-methylimidazolium octyl sulfate] | kg/m3 | 1050.8 |
| CCn1cc[n+](C)c1.O=S(=O)([N-]S(=O)(=O)C(F)(F)F)C(F)(F)F | kg/m3 | 1498.6 |
| CCCC[n+]1ccn(C)c1.O=S(=O)([N-]S(=O)(=O)C(F)(F)F)C(F)(F)F | kg/m3 | 1417.4 |
| CCOS(=O)(=O)[O-].CCn1cc[n+](C)c1 [1-ethyl-3-methylimidazolium ethyl sulfate] | kg/m3 | 1227.3 |
| CCCCCCCC[N+](C)(CCCCCCCC)CCCCCCCC.O=S(=O)([N-]S(=O)(=O)C(F)(F)F)C(F)(F)F | kg/m3 | 1089.6 |
| CCCC[N+](C)(C)C.O=S(=O)([N-]S(=O)(=O)C(F)(F)F)C(F)(F)F [butyltrimethylammonium bis(trifluoromethylsulfonyl)imide] | kg/m3 | 1376.1 |

###

Listed below: surface tension liquid-gas values for each entry.
Details: 298.15 K, Pendant drop shape

| compound | measurementUnits | surface tension liquid-gas |
| --- | --- | --- |
| CCCCCCCC[N+](C)(CCCCCCCC)CCCCCCCC.O=S(=O)([N-]S(=O)(=O)C(F)(F)F)C(F)(F)F | mN/m | 27.93 |
| CCCCCCCCOS(=O)(=O)[O-].CCCCn1cc[n+](C)c1 [1-butyl-3-methylimidazolium octyl sulfate] | mN/m | 26.71 |
| CCCC[N+](C)(C)C.O=S(=O)([N-]S(=O)(=O)C(F)(F)F)C(F)(F)F [butyltrimethylammonium bis(trifluoromethylsulfonyl)imide] | mN/m | 32.46 |
| CCOS(=O)(=O)[O-].CCn1cc[n+](C)c1 [1-ethyl-3-methylimidazolium ethyl sulfate] | mN/m | 45.43 |
| CCCC[n+]1ccn(C)c1.O=S(=O)([N-]S(=O)(=O)C(F)(F)F)C(F)(F)F | mN/m | 32.8 |
| CCn1cc[n+](C)c1.O=S(=O)([N-]S(=O)(=O)C(F)(F)F)C(F)(F)F | mN/m | 35.71 |

###

Details: 328.15 K, Pendant drop shape
Label Fulfilled when surface tension liquid-gas < 30 mN/m; otherwise Not fulfilled.

| molecule | answerLabel |
| --- | --- |
| CCCC[n+]1ccn(C)c1.O=S(=O)([N-]S(=O)(=O)C(F)(F)F)C(F)(F)F | Not fulfilled |
| CCCCCCCCOS(=O)(=O)[O-].CCCCn1cc[n+](C)c1 [1-butyl-3-methylimidazolium octyl sulfate] | Fulfilled |
| CCCCCCCC[N+](C)(CCCCCCCC)CCCCCCCC.O=S(=O)([N-]S(=O)(=O)C(F)(F)F)C(F)(F)F | Fulfilled |
| CCn1cc[n+](C)c1.O=S(=O)([N-]S(=O)(=O)C(F)(F)F)C(F)(F)F | Not fulfilled |
| CCOS(=O)(=O)[O-].CCn1cc[n+](C)c1 [1-ethyl-3-methylimidazolium ethyl sulfate] | Not fulfilled |

###

Conditions: 298.15 K; 101.33 kPa; Liquid; Vibrating tube method
Numbers after ± are expanded uncertainties.

| compound | mass density |
| --- | --- |
| CCCC[n+]1ccn(C)c1.O=S(=O)([N-]S(=O)(=O)C(F)(F)F)C(F)(F)F | 1436.6 ± 15 kg/m3 |
| CCn1cc[n+](C)c1.O=S(=O)([N-]S(=O)(=O)C(F)(F)F)C(F)(F)F | 1518.7 ± 16 kg/m3 |
| CCCCCCCCOS(=O)(=O)[O-].CCCCn1cc[n+](C)c1 [1-butyl-3-methylimidazolium octyl sulfate] | 1063.8 ± 7.9 kg/m3 |
| CCOS(=O)(=O)[O-].CCn1cc[n+](C)c1 [1-ethyl-3-methylimidazolium ethyl sulfate] | 1241.1 ± 11 kg/m3 |
| CCCC[N+](C)(C)C.O=S(=O)([N-]S(=O)(=O)C(F)(F)F)C(F)(F)F [butyltrimethylammonium bis(trifluoromethylsulfonyl)imide] | 1394 ± 14 kg/m3 |
| CCCCCCCC[N+](C)(CCCCCCCC)CCCCCCCC.O=S(=O)([N-]S(=O)(=O)C(F)(F)F)C(F)(F)F | 1104.6 ± 8.5 kg/m3 |

// data source = the NIST ThermoML archive (doi:10.1021/je700621d)
